- Tested on: chitinase from Candida albicans
- experiment.description: Assay for chitinase inhibitory activity, chitinase from Candida albicans (4MBTC fluorescence)
- Assay type: biochemical, Candida albicans ATCC 10231
- settings: bis-Tris buffer pH 6.5, 37° C., 30 minutes, substrate 4MBTC
- Procedure: The chitinase from Candida albicans (C. albicans) was prepared by the following method. Firstly, a Sabouraud medium (pH 5.6) composed of 4 g of glucose, 1 g of polypeptone and 100 ml of water was prepared and placed in an Erlenmeyer flask of 500 ml volume. After sterilization at 120° C. for 20 minutes, one platinum loop of slant culture cells of C. albicans ATCC 10231 was inoculated into the medium, and then shake cultured at 37° C. for 2 days to obtain a primary seed mother liquor. […]
Give measured Chitinase Inhibitory Activity IC50, C. albicans for each item. Keep answers brief.
Write down the numeric answer in µg/mL and omit the unit.

Q. Reported Chitinase Inhibitory Activity IC50, C. albicans, compound COC[C@H]1O[C@@H](O[C@H]2[C@@H](O)[C@@H](NC(C)=O)[C@H](OC3C(O)C4N=C(N(C)C)OC4C3CO)O[C@@H]2CO)[C@H](NC(C)=O)[C@H](O)[C@@H]1O (some centres unmarked) [Methylallosamidin, methylallosamidin, reference compound] : ____
A. 8.8

Q. Reported Chitinase Inhibitory Activity IC50, C. albicans, compound CC(=O)N[C@H]1[C@H](OC2C(O)C3N=C(N(C)C)OC3C2CO)O[C@H](CO)[C@@H](O)[C@@H]1O (some centres unmarked) : ____
A. 1.3

Q. Reported Chitinase Inhibitory Activity IC50, C. albicans, compound CC(=O)N[C@H]1[C@H](O[C@H]2[C@@H](O)[C@@H](NC(C)=O)[C@H](O[C@H]3[C@H](O)[C@H]4N=C(N(C)C)O[C@H]4[C@@H]3CO)O[C@@H]2CO)O[C@H](CO)[C@@H](O)[C@H]1O : ____
A. 6.2

Q. Reported Chitinase Inhibitory Activity IC50, C. albicans, compound CNC1=NC2C(O)C(O[C@@H]3O[C@H](CO)[C@@H](O)[C@H](O)[C@H]3NC(C)=O)C(CO)C2O1 (some centres unmarked) : ____
A. 1.0

Q. Reported Chitinase Inhibitory Activity IC50, C. albicans, compound COC[C@H]1O[C@@H](O[C@H]2[C@H](O)[C@@H](NC(C)=O)[C@H](OC3C(O)C4N=C(N(C)C)OC4C3CO)O[C@@H]2CO)[C@H](NC(C)=O)[C@H](O)[C@@H]1O (some centres unmarked) [AJI9463C] : ____
A. 3.4

Q. Reported Chitinase Inhibitory Activity IC50, C. albicans, compound CNC1=NC2C(O)C(O[C@@H]3O[C@H](CO)[C@@H](O[C@@H]4O[C@H](COC)[C@@H](O)[C@@H](O)[C@H]4NC(C)=O)[C@@H](O)[C@H]3NC(C)=O)C(CO)C2O1 (some centres unmarked) [AJI9463A] : ____
A. 0.6

Q. Reported Chitinase Inhibitory Activity IC50, C. albicans, compound CNC1=NC2C(O)C(O[C@@H]3O[C@H](CO)[C@@H](O)[C@@H](O)[C@H]3NC(C)=O)C(CO)C2O1 (some centres unmarked) : ____
A. 0.9

Q. Reported Chitinase Inhibitory Activity IC50, C. albicans, compound CNC1=NC2C(O)C(O[C@@H]3O[C@H](CO)[C@@H](O[C@@H]4O[C@H](COC)[C@@H](O)[C@@H](O)[C@H]4NC(C)=O)[C@H](O)[C@H]3NC(C)=O)C(CO)C2O1 (some centres unmarked) [AJI9463B] : ____
A. 0.8

---

- assay.system: chitinase from baker's yeast (S cerevisiae) (Saccharomyces cerevisiae, UniProt P29029)
- Sequence (P29029 21-562): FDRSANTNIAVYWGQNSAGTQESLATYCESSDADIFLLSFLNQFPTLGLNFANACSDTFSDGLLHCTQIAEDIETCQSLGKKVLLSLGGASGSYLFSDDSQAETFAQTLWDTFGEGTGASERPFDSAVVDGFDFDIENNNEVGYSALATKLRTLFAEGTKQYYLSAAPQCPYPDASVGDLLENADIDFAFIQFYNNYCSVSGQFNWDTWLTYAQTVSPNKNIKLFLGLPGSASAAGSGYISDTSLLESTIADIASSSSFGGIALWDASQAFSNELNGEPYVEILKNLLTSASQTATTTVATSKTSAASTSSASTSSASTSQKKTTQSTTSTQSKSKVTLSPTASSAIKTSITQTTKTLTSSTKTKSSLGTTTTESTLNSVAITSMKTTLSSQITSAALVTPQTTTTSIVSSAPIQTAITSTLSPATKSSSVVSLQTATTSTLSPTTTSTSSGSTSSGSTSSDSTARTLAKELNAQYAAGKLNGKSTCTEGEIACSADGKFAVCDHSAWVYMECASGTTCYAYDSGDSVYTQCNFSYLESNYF
assay.readout: IC50 (µM)
Write down the numeric answer in µM and omit the unit.

Q. Param readout = IC50; param system = chitinase from baker's yeast (S cerevisiae) (Saccharomyces cerevisiae, UniProt P29029); param query = COC[C@H]1O[C@@H](O[C@H]2[C@H](O)[C@@H](NC(C)=O)[C@H](OC3C(O)C4N=C(N(C)C)OC4C3CO)O[C@@H]2CO)[C@H](NC(C)=O)[C@H](O)[C@@H]1O (stereo partly shown) [AJI9463C] ; response: value
A. 49.2

Q. Param readout = IC50; param system = chitinase from baker's yeast (S cerevisiae) (Saccharomyces cerevisiae, UniProt P29029); param query = CNC1=NC2C(O)C(O[C@@H]3O[C@H](CO)[C@@H](O[C@@H]4O[C@H](COC)[C@@H](O)[C@@H](O)[C@H]4NC(C)=O)[C@@H](O)[C@H]3NC(C)=O)C(CO)C2O1 (stereo partly shown) [AJI9463A] ; response: value
A. 0.642

Q. Param readout = IC50; param system = chitinase from baker's yeast (S cerevisiae) (Saccharomyces cerevisiae, UniProt P29029); param query = CNC1=NC2C(O)C(O[C@@H]3O[C@H](CO)[C@@H](O[C@@H]4O[C@H](COC)[C@@H](O)[C@@H](O)[C@H]4NC(C)=O)[C@H](O)[C@H]3NC(C)=O)C(CO)C2O1 (stereo partly shown) [AJI9463B] ; response: value
A. 0.803

Q. Param readout = IC50; param system = chitinase from baker's yeast (S cerevisiae) (Saccharomyces cerevisiae, UniProt P29029); param query = COC[C@H]1O[C@@H](O[C@H]2[C@@H](O)[C@@H](NC(C)=O)[C@H](OC3C(O)C4N=C(N(C)C)OC4C3CO)O[C@@H]2CO)[C@H](NC(C)=O)[C@H](O)[C@@H]1O (stereo partly shown) [Methylallosamidin, methylallosamidin, reference compound] ; response: value
A. 58.4

---

- assay.system: chitinase from Trichoderma sp. (Chitinase T-1)
- experiment.description: Assay for chitinase inhibitory activity, chitinase from Trichoderma sp.
- Type: biochemical
- settings: McIlvaine buffer pH 5.2, substrate 4MBTC
Give measured Chitinase Inhibitory Activity IC50, Trichoderma sp. for each item. Keep answers brief.
Write down the numeric answer in µg/mL and omit the unit.

Q. Param readout = Chitinase Inhibitory Activity IC50, Trichoderma sp.; param system = chitinase from Trichoderma sp. (Chitinase T-1); param query = COC[C@H]1O[C@@H](O[C@H]2[C@@H](O)[C@@H](NC(C)=O)[C@H](OC3C(O)C4N=C(N(C)C)OC4C3CO)O[C@@H]2CO)[C@H](NC(C)=O)[C@H](O)[C@@H]1O (some centres unmarked) [Methylallosamidin, methylallosamidin, reference compound] ; response: value
A. 1.2

Q. Param readout = Chitinase Inhibitory Activity IC50, Trichoderma sp.; param system = chitinase from Trichoderma sp. (Chitinase T-1); param query = CNC1=NC2C(O)C(O[C@@H]3O[C@H](CO)[C@@H](O[C@@H]4O[C@H](COC)[C@@H](O)[C@@H](O)[C@H]4NC(C)=O)[C@@H](O)[C@H]3NC(C)=O)C(CO)C2O1 (some centres unmarked) [AJI9463A] ; response: value
A. 1.3

Q. Param readout = Chitinase Inhibitory Activity IC50, Trichoderma sp.; param system = chitinase from Trichoderma sp. (Chitinase T-1); param query = COC[C@H]1O[C@@H](O[C@H]2[C@H](O)[C@@H](NC(C)=O)[C@H](OC3C(O)C4N=C(N(C)C)OC4C3CO)O[C@@H]2CO)[C@H](NC(C)=O)[C@H](O)[C@@H]1O (some centres unmarked) [AJI9463C] ; response: value
A. 0.8

Q. Param readout = Chitinase Inhibitory Activity IC50, Trichoderma sp.; param system = chitinase from Trichoderma sp. (Chitinase T-1); param query = CNC1=NC2C(O)C(O[C@@H]3O[C@H](CO)[C@@H](O[C@@H]4O[C@H](COC)[C@@H](O)[C@@H](O)[C@H]4NC(C)=O)[C@H](O)[C@H]3NC(C)=O)C(CO)C2O1 (some centres unmarked) [AJI9463B] ; response: value
A. 1.6

Q. Param readout = Chitinase Inhibitory Activity IC50, Trichoderma sp.; param system = chitinase from Trichoderma sp. (Chitinase T-1); param query = CC(=O)N[C@H]1[C@H](O[C@H]2[C@@H](O)[C@@H](NC(C)=O)[C@H](O[C@H]3[C@H](O)[C@H]4N=C(N(C)C)O[C@H]4[C@@H]3CO)O[C@@H]2CO)O[C@H](CO)[C@@H](O)[C@H]1O ; response: value
A. 0.8
